Origin of values: patent US20060228349A1

# System: T1, Biotinylated ADDL preparations (bADDLs) (N-terminal biotin)
# T1 construct: Oligomer, number of copies not fixed; also called biotinylated ADDL antigen; high molecular weight 10% bADDL
# Assay Remarks: titration ELISA, 10% biotinylated ADDL on streptavidin plates
Reported Property: binding result

| Binder | Value Measured |
| --- | --- |
| humanized 26D6, veneered, HCVR Ven3 IgG1 / LCVR Ven2 Kappa (antibody, V domains shown, also called 26D6 veneered Ven3/Ven2) VH: QVTLKESGPGLVKPTQTLSLTCSFSGFSLSTSGMGVSWIRQPSGKGLEWLAHIYWDDDKQYNPSLKSRLTISKDTSKNQVVLTITSVDPVDTATYYCVRRASSSRYDDQFDYWGQGTLLTVSS VL: DVVMTQTPLSLPVSLGDPASISCRASQSIVHSNGNTYLEWYLQKPGQSPKLLIYRVSNRFSGVPDRFSGSGSGTDFTLKISRVEAEDVGVYFCFQVTHVPLTFGGGTKLELKR | binds |
| humanized 4E2, CDR grafted, HCVR IgG1 / LCVR Kappa (antibody, V domains shown, also called 4E2 (humanized IgG1)) VH: QVTLKESGPALVKPTQTLTLTCTFSGFSLSTSGMGVGWIRQPPGKALEWLAHIWWDDDKYYNPSLKSQLTISKDTSKNQVVLTMTNMDPVDTATYYCARRSINSVVPEDYFDYWGQGTTVTVSS VL: DVVMTQSPLSLPVTPGEPASISCRSSQSIVHSNGNTYLEWYLQKPGQSPQLLIYKVSNRFSGVPDRFSGSGSGTDFTLKISRVEAEDVGVYYCFQGSHVPLTFGQGTKLEIKR | binds |
| humanized 1F6, CDR grafted, HCVR IgG1 / Kappa light chain of 4E2 (antibody, V domains shown, also called 1F6 (humanized IgG1)) VH: EVQLVESGGGLVQPGGSLRLSCAASGFTFSSFGMHWVRQAPGKGLEWVAYISSVSSTIYYADTVKGRFTISRDNSKNTLYLQMNSLRAEDTAVYYCARSGYGSSYGYGMDYWGQGTLVTVSS VL: DVVMTQSPLSLPVTPGEPASISCRSSQSIVHSNGNTYLEWYLQKPGQSPQLLIYKVSNRFSGVPDRFSGSGSGTDFTLKISRVEAEDVGVYYCFQGSHVPLTFGQGTKLEIKR | binds |
